MEASURED ON: T1, ASB7-Elongin B-Elongin C ternary complex (wild-type ASB7, residues 11-318) (human, UniProt Q9H672 11-318; Q15370 1-104; Q15369 17-112)
T1 construct: human ASB7, residues 11-318; human Elongin B, residues 1-104; also called ASB7-Elongin B/C; WT; source: E. coli BL21 (DE3), co-expressed, purified (Ni-NTA, Superdex 200); not shown: SUMO, N-terminal, cleaved; copies: + +
PROTOCOL TEXT: ITC; peptide in the syringe titrated into ASB7-Elongin B/C in the cell; MicroCal PEAQ-ITC, 16 °C, 20 mM Tris-HCl pH 7.5, 150 mM NaCl; 39–156 μM protein, 0.8–4 mM peptide; repeated three times, mean ± SD
ASSAY CONTEXT: both partners purified
stoichiometry N by entry:
Would you mind answering with just the numeric figure?

Reference set, count: 2
Need stoichiometry N of ELEKAKQECQDLKGKLEKCCRH (stretch of CEP152, a reported ASB7 substrate; source: synthetic peptide (Shanghai Apeptide Co., Ltd.)) [CEP152 degron peptide] , thanks.
1.27

I am curious: what stoichiometry N value has been reported for ELESLMKEQDLLETKLR (LZTS1 degron, positions E1 to R17 of the degron numbering; also called 17-residue degron; source: synthetic peptide (Shanghai Apeptide Co., Ltd.)) [LZTS1 degron peptide, 17 residues (ELESLMKEQDLLETKLR)] ?
1.12

Could you now look at the following binder, please?
Any idea what its stoichiometry N is? The binder is LEQEIRELQAEAGRTRGALEVLG (stretch of CCDC17, a reported ASB7 substrate; also called CCDC17 peptide; source: synthetic peptide (Shanghai Apeptide Co., Ltd.)) [CCDC17 degron peptide]
0.76
